Biological target: human σ2/TMEM97 receptor (Homo sapiens)
Construct: expressed in transfected cells; host or cells: HEK-293
Sequence (Q5BJF2 whole entry): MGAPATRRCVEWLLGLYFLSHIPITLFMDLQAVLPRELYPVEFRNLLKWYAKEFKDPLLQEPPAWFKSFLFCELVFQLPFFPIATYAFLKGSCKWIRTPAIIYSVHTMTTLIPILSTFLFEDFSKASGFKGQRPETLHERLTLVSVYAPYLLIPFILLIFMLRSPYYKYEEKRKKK
Assay: Binding assay to human σ2/TMEM97 receptor ([3H]-DTG)
Conditions: transfected HEK-293 membranes, 10 nM [3H]-DTG, 25° C., 120 minutes; read-out: Binding σ-[…] (binding to σ2-receptor expressed as Ki)
Reported property: Ki

# Compound, Readout value
records = [
    ("CN(C)C(CNC(=O)N1CC(C)(C)c2nc(C(F)(F)F)ccc21)c1ccccc1 (stereo not drawn) [Example 3]", "> 1000 nM"),
    ("Cc1ccc2c(n1)C(C)(C)CN2C(=O)NC1CCN(CCC(C)C)CC1 [Example 25]", "100 to 500 nM"),
    ("Cc1ccc2c(n1)C(C)(C)CN2C(=O)NC1CCN(CC2CCOCC2)CC1 [Example 42]", "> 1000 nM"),
    ("CCN(CC)C(CNC(=O)N1CC(C)(C)c2nc(C)ccc21)c1ccccc1 (stereo not drawn) [Example 9]", "> 1000 nM"),
    ("Cc1ccc2c(n1)C(C)(C)CN2C(=O)NCC(c1ccccc1)N(C)C (stereo not drawn) [Example 2]", "> 1000 nM"),
    ("CN(C)[C@@H](CNC(=O)N1CC(C)(C)c2nc(C#N)ccc21)c1ccccc1 [Example 15]", "> 1000 nM"),
    ("CN(Cc1ccc(C#N)cc1)C1CCN(C(=O)N2CC(C)(C)c3ncccc32)CC1 [Example 84]", "< 100 nM"),
    ("Cc1ccc2c(n1)CCN2C(=O)NC[C@@H](c1ccccc1)N(C)C [Example 6]", "> 1000 nM"),
    ("Cc1ccc2c(n1)C(C)(C)CN2C(=O)N1CCC(N(C)Cc2cccc(F)c2)CC1 [Example 116]", "< 100 nM"),
]

====

Target: human σ1 receptor (Homo sapiens)
Construct: expressed in transfected cells; host or cells: HEK-293
Sequence (Q99720 whole entry): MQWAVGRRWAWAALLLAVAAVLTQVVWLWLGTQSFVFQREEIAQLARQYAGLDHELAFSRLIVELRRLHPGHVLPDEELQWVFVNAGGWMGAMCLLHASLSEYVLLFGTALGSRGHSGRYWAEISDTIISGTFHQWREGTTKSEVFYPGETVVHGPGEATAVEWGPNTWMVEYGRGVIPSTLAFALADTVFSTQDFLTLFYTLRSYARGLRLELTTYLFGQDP
Assay: Human σ1 receptor radioligand assay ([3H](+)-pentazocine)
Type: binding
Settings: transfected HEK-293 membranes, 5 nM [3H](+)-pentazocine, 37° C., 120 minutes; read-out: Binding σ-[…] (binding to σ1-receptor expressed as Ki)
pKi: −log10 of the molar value.

# Compound, pKi
measured = [
    ("CN(Cc1ccc(C#N)cc1)C1CCN(C(=O)N2CC(C)(C)c3ncccc32)CC1 [Example 84]", "6.30 to 7.00"),
    ("CN(Cc1cc(F)cc(C#N)c1)C1CCN(C(=O)N2CC(C)(C)c3ncccc32)CC1 [Example 76]", "< 6.00"),
    ("Cc1ccc2c(n1)C(C)(C)CN2C(=O)N1CCC(N(C)Cc2cccc(C#N)c2)CC1 [Example 118]", "< 6.00"),
    ("Cc1ccc2c(n1)C(C)(C)CN2C(=O)NC1CCN(Cc2ccc(C#N)cc2)CC1 [Example 24]", "> 7.00"),
    ("Cc1ccc2c(n1)C(C)(C)CN2C(=O)N1CCC2(CCN(CC3CCOCC3)CC2)CC1 [Example 161]", "6.30 to 7.00"),
    ("Cc1ccc2c(n1)C(C)(C)CN2C(=O)[C@H]1CC[C@@H](N(C)Cc2ccccc2)CC1 [Example 126]", "> 7.00"),
    ("Cc1ccc2c(n1)C(C)(C)CN2C(=O)[C@H]1CC[C@H](N(C)Cc2ccc(F)cn2)CC1 [Example 179]", "> 7.00"),
    ("CC1(C)CN(C(=O)N2CCC3(CCN(CC4CCOCC4)CC3)C2)c2cccnc21 [Example 144]", "6.30 to 7.00"),
    ("CN(Cc1ccccc1)C1CCN(C(=O)N2CC(C)(C)c3ncccc32)CC1 [Example 29]", "6.30 to 7.00"),
    ("Cc1ccc2c(n1)C(C)(C)CN2C(=O)[C@H]1CC[C@H](N(C)Cc2ccnc(C(F)(F)F)c2)CC1 [Example 177]", "6.30 to 7.00"),
    ("CCN(CC)C(CNC(=O)N1CC(C)(C)c2nc(C)ccc21)c1ccccc1 (centres unmarked) [Example 9]", "> 7.00"),
    ("CC1(C)CN(C(=O)N2CCC3(CCN(Cc4ccc(C#N)cc4F)CC3)CC2)c2cccnc21 [Example 165]", "> 7.00"),
    ("CN(Cc1cccc(C#N)c1)C1CCN(C(=O)N2CC(C)(C)c3ncccc32)CC1 [Example 83]", "< 6.00"),
    ("Cc1ccc2c(n1)C(C)(C)CN2C(=O)[C@H]1CC[C@H](N(C)Cc2ncccc2F)CC1 [Example 178]", "> 7.00"),
    ("Cc1ccc2c(n1)C(C)(C)CN2C(=O)N1CCC(N(C)Cc2ccc(F)c(C#N)c2)CC1 [Example 60]", "6.30 to 7.00"),
    ("Cc1ccc2c(n1)C(C)(C)CN2C(=O)N1CCC2(CCN(Cc3ccccn3)CC2)C1 [Example 94]", "< 6.00"),
    ("Cc1ccc2c(n1)C(C)(C)CN2C(=O)N1CCC2(CCN(Cc3cccnc3)CC2)C1 [Example 98]", "< 6.00"),
]
